biological target: Adenosine receptor A2a (Homo sapiens)
Sequence (P29274 whole entry): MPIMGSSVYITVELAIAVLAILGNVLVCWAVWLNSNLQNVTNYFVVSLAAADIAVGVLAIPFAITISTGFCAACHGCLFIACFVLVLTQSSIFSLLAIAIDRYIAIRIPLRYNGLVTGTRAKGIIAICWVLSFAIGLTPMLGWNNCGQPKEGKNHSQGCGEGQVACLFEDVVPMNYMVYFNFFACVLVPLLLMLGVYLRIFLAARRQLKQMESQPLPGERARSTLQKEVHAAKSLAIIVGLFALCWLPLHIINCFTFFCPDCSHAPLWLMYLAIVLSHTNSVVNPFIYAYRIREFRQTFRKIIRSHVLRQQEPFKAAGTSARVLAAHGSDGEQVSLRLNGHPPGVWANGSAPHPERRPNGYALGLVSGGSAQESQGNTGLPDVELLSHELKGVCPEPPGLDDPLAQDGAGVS
pIC50: −log10 of the molar value.
Tick criterion met if pIC50 is 8 or greater. Tick criterion not met if pIC50 is less than 8.

INSERT INTO results (compound, tested_system, category) VALUES
  ('COc1cc(F)cc2c1nc(N)n1nc(C3CC3(F)c3ccccc3)nc21 (configuration not stated) [US20250171447, Ex-33]', 'Adenosine receptor A2a (Homo sapiens)', 'criterion not met');

Okay, now this compound:
[in] Please check the record COc1cc(F)cc2c1nc(N)n1nc([C@H]3C[C@H](c4ccc(C(C)(C)O)cn4)C3)nc21 and state if its pIC50 is at or above 8.
[out] criterion met

###

biological target: UniProt:P29274
Each item that follows carries a reported pIC50.
Value format note: pIC50 is -log10 of concentration (mol/L); just state the number.

Past entries and their recorded results:
INSERT INTO measurements (compound, metric_name, measured_number) VALUES
  ('COc1cccc2c1nc(N)n1nc([C@H]3C[C@H](c4ccc(C(C)(C)N)nc4)C3)nc21', 'pIC50', 8.09),
  ('COc1cccc2c1nc(N)n1nc([C@H]3C[C@H](c4ccc(C(C)(C)O)nc4)C3)nc21', 'pIC50', 8.06),
  ('Cc1nc(C(C)(C)N)cnc1[C@H]1C[C@H](c2nc3c4cc(F)cc(F)c4nc(N)n3n2)C1', 'pIC50', 8.35),
  ('COc1cc(F)cc2c1nc(N)n1nc(C3CC3c3ccc(F)cc3)nc21 (configuration not stated)', 'pIC50', 7.35),
  ('COc1ccc2c(c1)nc(N)n1nc([C@H]3C[C@@H](c4ncc(C(C)(C)O)cn4)C3)nc21', 'pIC50', 6.97),
  ('COc1cc(F)cc2c1nc(N)n1nc(C3CC3(F)c3ccccc3)nc21 (configuration not stated) [US20250171447, Ex-32]', 'pIC50', 6.42);

Now for another entry.
[in] Please tell me: pIC50 of COc1cc(F)cc2c1nc(N)n1nc(C3CC3(F)c3ccccc3)nc21 (configuration not stated) [US20250171447, Ex-29] , system UniProt:P29274?
[out] 8.46

###

target: Adenosine receptor A2b (Homo sapiens, UniProt P29275)
Sequence (P29275 whole entry): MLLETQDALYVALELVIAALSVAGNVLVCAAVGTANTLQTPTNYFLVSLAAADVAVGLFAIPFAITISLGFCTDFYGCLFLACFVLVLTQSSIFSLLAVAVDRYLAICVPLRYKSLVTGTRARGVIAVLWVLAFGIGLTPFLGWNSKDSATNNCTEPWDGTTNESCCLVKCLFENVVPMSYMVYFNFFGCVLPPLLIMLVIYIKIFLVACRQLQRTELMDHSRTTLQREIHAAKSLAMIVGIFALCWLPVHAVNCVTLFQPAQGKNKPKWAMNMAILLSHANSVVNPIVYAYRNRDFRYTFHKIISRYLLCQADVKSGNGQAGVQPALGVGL
pIC50 by entry:
// field semantics: pIC50 = negative decimal log of concentration (mol/L)

# annotated cases, reported pIC50 shown
INSERT INTO assay_data (compound, measured_number) VALUES
  ('COc1cccc2c1nc(N)n1nc(C3CC3CO)nc21 (centres undefined)', 6.98),
  ('COc1cccc2c1nc(N)n1nc(C3CC(c4ncc(C(C)(C)N)cc4Cl)C3)nc21 (centres undefined)', 8.57),
  ('COc1cc(F)cc2c1nc(N)n1nc(C3CC3(F)c3ccccc3)nc21 (centres undefined) [US20250171447, Ex-32]', 6.22);

--- query ---
[in] Record lookup: for Adenosine receptor A2b (Homo sapiens, UniProt P29275), what pIC50 belongs to COc1cc(F)cc2c1nc(N)n1nc(C3CC3(F)c3ccccc3)nc21 (centres undefined) [US20250171447, Ex-39] ?
[out] 7.14

###

target: Adenosine receptor A2a (Homo sapiens)
pIC50: −log10 of the molar value.
Please enter Criterion met where pIC50 is greater than or equal to 8, and Criterion not met where it is lower.

Solved cases below.
INSERT INTO results (compound, category) VALUES
  ('COc1cccc2c1nc(N)n1nc([C@H]3C[C@H](c4ccc(CC(C)(C)O)cn4)C3)nc21 [US20250171447, Ex-66]', 'Criterion met'),
  ('COc1ccc2c(c1)nc(N)n1nc([C@H]3C[C@H](c4ccc(CC(C)(C)O)cn4)C3)nc21 [US20250171447, Ex-56]', 'Criterion not met'),
  ('COc1cccc2c1nc(N)n1nc(C3CC3CO)nc21 (stereo not given) [US20250171447, Ex-36]', 'Criterion not met');

[in] Say whether COc1cccc2c1nc(N)n1nc([C@H]3C[C@H](c4ccc(C5(O)CC(F)(F)C5)cn4)C3)nc21 [US20250171447, Ex-103] shows pIC50 of 8 or more.
[out] Criterion met

[in] Please indicate if the recorded pIC50 for COc1cc(F)cc2c1nc(N)n1nc([C@H]3C[C@@H](c4ccc(C(C)(C)O)cn4)C3)nc21 [US20250171447, Ex-45] meets or exceeds 8.
[out] Criterion met

[in] Reported pIC50 reaches at least 8 for Cc1nc(C(C)(C)N)cnc1[C@H]1C[C@@H](c2nc3c4cc(F)cc(F)c4nc(N)n3n2)C1 [US20250171447, Ex-130] ?
[out] Criterion not met

[in] hey, is pIC50 for this one >= 8? Cc1nc(C(C)(C)N)cnc1[C@H]1C[C@@H](c2nc3c4cccc(Cl)c4nc(N)n3n2)C1 [US20250171447, Ex-128]
[out] Criterion not met

[in] Answer whether pIC50 of COc1cc2nc(N)n3nc([C@H]4C[C@@H](c5ncc(C(C)(C)N)nc5C)C4)nc3c2cc1F [US20250171447, Ex-132] is greater than or equal to 8.
[out] Criterion not met
